Exercise: for every item that follows, state its recorded pIC50.
Biological target: recombinant mouse LPLA2 (PLA2G15) (Mus musculus)
Construct: purchased Proteos Inc. (Kalamazoo, MI)
Sequence (Q8VEB4 34-412): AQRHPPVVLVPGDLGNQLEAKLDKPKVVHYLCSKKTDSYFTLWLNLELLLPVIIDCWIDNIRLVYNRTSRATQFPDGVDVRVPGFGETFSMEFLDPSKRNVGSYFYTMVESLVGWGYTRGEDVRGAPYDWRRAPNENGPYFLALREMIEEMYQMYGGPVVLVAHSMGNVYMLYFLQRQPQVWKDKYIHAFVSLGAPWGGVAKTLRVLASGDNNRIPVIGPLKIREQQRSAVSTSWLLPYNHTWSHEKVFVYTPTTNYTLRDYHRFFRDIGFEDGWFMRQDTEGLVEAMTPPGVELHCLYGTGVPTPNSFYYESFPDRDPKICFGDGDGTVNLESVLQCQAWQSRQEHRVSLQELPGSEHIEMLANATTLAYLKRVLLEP
Assay: Transacylase activity of LPLA2 (1-O-acyl-N-acetylsphingosine synthase, cell-free liposome assay)
Type: biochemical
Conditions: 1-O-acyl N-acetylsphingosine synthase activity, pH 4.5, DOPC/sulfatide liposomes; read-out: LPLA2 IC50
The quantity pIC50 is defined as the negative base-10 logarithm of the molar concentration.

Input line: Fill in the blank: the reported pIC50 of CN(CCCN1c2ccccc2CCc2ccccc21)CC(=O)c1ccc(Cl)cc1 is ____.
Output line: 4.88

Input line: // lookup pIC50 for CN(Cc1cc(Br)cc(Br)c1N)C1CCCCC1.Cl
Output line: 4.51

Input line: Fill in: pIC50 of CC(C)(C#N)c1cc(Cn2cncn2)cc(C(C)(C)C#N)c1 is ___
Output line: 5.32

Input line: Can you look up the measured pIC50 of O=C(COc1ccc(Cl)cc1)N1CCN(Cc2ccc3c(c2)OCO3)CC1 [Fipexide] for me?
Output line: 4.76

Input line: Which pIC50 reading was recorded for the compound CN(C)CCC=C1c2ccccc2CCc2ccccc21 ?
Output line: 4.83

Input line: Query: pIC50; subject: Cc1nc2ccccn2c(=O)c1CCN1CCC(C(=O)c2ccc(F)cc2)CC1
Output line: 3.63

Input line: I have this compound here, CC(CN(C)C)CN1c2ccccc2CCc2ccccc21 (stereo not drawn) , and I need its recorded pIC50.
Output line: 3.57

Input line: Query (compound): CCCNCC(O)COc1ccccc1C(=O)CCc1ccccc1 (stereo not drawn) ; field requested: pIC50
Output line: 4.32

Input line: Endpoint output: pIC50 of CC1=C(CC(=O)O)c2cc(F)ccc2/C1=C\c1ccc([S+](C)[O-])cc1 (stereo not drawn) . Value?
Output line: 4.96
